The reported numbers originate from the supplement of paper PMC10065799.

In this section, each of the sequences is paired with its reported phosphorylation enrichment.
# tested_system: Hck (UniProt P08631)
# Sequence (P08631 whole entry, looked up): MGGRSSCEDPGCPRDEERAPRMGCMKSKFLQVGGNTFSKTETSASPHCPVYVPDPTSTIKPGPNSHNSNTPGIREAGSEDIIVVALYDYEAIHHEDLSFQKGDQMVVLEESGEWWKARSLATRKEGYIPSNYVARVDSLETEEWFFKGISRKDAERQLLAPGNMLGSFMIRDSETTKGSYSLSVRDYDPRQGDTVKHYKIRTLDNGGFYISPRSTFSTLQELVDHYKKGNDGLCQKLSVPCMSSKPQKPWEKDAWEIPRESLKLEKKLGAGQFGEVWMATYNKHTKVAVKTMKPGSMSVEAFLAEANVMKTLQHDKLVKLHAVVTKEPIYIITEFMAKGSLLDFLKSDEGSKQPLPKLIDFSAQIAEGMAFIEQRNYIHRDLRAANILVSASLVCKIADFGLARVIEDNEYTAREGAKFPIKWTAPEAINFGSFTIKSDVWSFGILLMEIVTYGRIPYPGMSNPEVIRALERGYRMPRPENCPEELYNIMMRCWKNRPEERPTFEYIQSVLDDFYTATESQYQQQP
# assay_summary: phosphorylation enrichment, bacterial display (enrichment ratio); higher = better substrate or ligand; peptides without Tyr show the background;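 further: 11-residue human phosphosite peptides and single-mutation variants displayed on the E. coli surface, counted by deep sequencing, each peptide's frequency after selection divided by its frequency in the unselected input library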;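 further: frequency after pTyr selection over input frequency; kinase dosed for 20-30% of maximal phosphorylation in three min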
Respond numerically, and do not add a unit to the figure.

Sample KRNSLYSFSDH [CCDC82_Y331_Q327R] — what was its phosphorylation enrichment?
0.964

I have this sequence here, WASSSYRETPS [SORBS1_Y79_R74W] , and I need its recorded phosphorylation enrichment.
0.409

Reported phosphorylation enrichment, sequence DVVKDYAFVHM [RBM14_Y114] : ____
0.435

Need phosphorylation enrichment of ESVNTYLQTSP [NAT1_Y208_M205V] , thanks.
0.556

Recorded phosphorylation enrichment for LKKLEYLNLPL [LRRC6_Y70_A74P] , please?
0.518

Fill in: phosphorylation enrichment of ISDNACQFMLT [MYH7_Y162_Y162C_YF] is ___
0.606

Name the recorded phosphorylation enrichment for QNTGDYFDLFG [PTPN11_Y62_YF] .
1.3

Request the reported phosphorylation enrichment associated with DDHFTYSRFPW [LY75_Y888_YF]
6.66

Report phosphorylation enrichment for GRLPEYNTPIA [CCDC151_Y542_R545P] please.
0.325

Item PHMQTYEVDPN [SDHB_Y61_L65P] has what recorded phosphorylation enrichment?
0.791

So what's the measured phosphorylation enrichment for this one? PADSGYPAFLG [ATP6V1A_Y374_YF]
0.959

Form field: reported phosphorylation enrichment of CNSFRYGGGGG [NPPA_Y151]
0.349

====

# tested_system: MERTK (UniProt Q12866)
# Sequence (Q12866 whole entry, looked up): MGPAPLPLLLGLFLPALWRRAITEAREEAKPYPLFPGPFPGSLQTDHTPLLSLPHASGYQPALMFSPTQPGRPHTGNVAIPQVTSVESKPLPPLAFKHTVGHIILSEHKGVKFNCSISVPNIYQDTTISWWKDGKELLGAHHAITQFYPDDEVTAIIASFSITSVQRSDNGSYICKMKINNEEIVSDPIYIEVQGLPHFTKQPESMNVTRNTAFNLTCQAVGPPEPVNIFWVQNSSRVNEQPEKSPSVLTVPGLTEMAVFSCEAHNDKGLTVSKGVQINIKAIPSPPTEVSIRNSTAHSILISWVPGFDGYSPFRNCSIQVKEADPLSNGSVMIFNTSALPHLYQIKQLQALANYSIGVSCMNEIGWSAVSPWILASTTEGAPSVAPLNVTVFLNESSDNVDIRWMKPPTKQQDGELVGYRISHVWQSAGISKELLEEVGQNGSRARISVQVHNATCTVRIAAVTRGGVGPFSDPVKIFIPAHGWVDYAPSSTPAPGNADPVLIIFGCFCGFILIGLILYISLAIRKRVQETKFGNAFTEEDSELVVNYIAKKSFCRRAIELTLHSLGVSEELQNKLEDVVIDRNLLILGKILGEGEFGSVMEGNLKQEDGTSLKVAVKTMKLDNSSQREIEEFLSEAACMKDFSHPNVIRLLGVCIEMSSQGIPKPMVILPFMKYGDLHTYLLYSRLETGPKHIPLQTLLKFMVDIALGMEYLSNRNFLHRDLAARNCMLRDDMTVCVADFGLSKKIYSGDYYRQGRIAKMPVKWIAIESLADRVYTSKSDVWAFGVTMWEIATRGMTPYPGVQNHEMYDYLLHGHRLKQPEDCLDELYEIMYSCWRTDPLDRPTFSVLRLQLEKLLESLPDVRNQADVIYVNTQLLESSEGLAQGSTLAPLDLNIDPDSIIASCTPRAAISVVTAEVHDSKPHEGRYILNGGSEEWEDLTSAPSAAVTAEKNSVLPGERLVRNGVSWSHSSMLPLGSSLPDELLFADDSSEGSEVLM
# assay_summary: phosphorylation enrichment, bacterial display (enrichment ratio); higher = better substrate or ligand; peptides without Tyr show the background
Assign class by phosphorylation enrichment: not lower than 0.7 means Yes; lower than 0.7 means No.

Consider the following illustrative entries.
| primary_sequence | class_label |
| --- | --- |
| EPSVDYCVVKI [CAD_Y735] | No |
| TFLRTYTDTMQ [TSPAN7_Y124_A127T] | No |
| TKVVHYRKWIK [KLK2_Y249] | No |

Determine whether this sequence has phosphorylation enrichment no lower than 0.7: SGPRRYTIATL [TTR_Y125_A129T]
No

Please tell me: is the sequence EVGHVYLFLQP [ITGA2B_Y360_R358H] at or over 0.7 in terms of phosphorylation enrichment?
No

Item PTTKTYFPHFD [HBA1_Y43] with phosphorylation enrichment of 0.7 or above?
No

Confirm if phosphorylation enrichment reported for the sequence FSNKLYFQLEQ [PDPR_Y109_YF] is 0.7 or above.
Yes

State whether the measured phosphorylation enrichment reaches 0.7, counting equality as reaching it, for EDKFMYSEFPQ [PTEN_Y240_F241S]
Yes

Threshold query (phosphorylation enrichment >= 0.7) on CTTIHCNFMCN [TP53_Y234_Y234C_YF]
No

Determine whether this sequence has phosphorylation enrichment no lower than 0.7: QELRRYLKSGV [MICA_Y194]
No

API: above_or_equal(metric=phosphorylation enrichment, cutoff=0.7) for item VGRVGYVSGWG [HP_Y280]
No

Is it the case that TPSGNYVACGG [GNB1_Y111_A106T] has phosphorylation enrichment reaching or exceeding 0.7?
No

Can SLLLSYFLIKW [NUP160_Y773_P768S_YF] be said to have phosphorylation enrichment at or above 0.7?
No

API: above_or_equal(metric=phosphorylation enrichment, cutoff=0.7) for item RQNNSYTCFTA [SLC20A2_Y386_R382Q_YF]
Yes

Can GCRSKYVRLWG [KCNQ1_Y184_G186R] be said to have phosphorylation enrichment at or above 0.7?
No

====

# tested_system: Hck (UniProt P08631)
# assay_summary: phosphorylation enrichment, bacterial display (enrichment ratio); higher = better substrate or ligand; peptides without Tyr show the background
Reported phosphorylation enrichment values follow for various sequences
Answer with a number only.

| primary_sequence | phosphorylation enrichment |
| --- | --- |
| DLLMQYPKAQG [FAM83C_Y600] | 0.364 |

For Hck (UniProt P08631), provide phosphorylation enrichment of TPTYPYLLPKS [PLD2_Y580] please.
0.441

Give phosphorylation enrichment (Hck (UniProt P08631)) of the following sequence: ASKEPYFVRCI [MYO1D_Y585_YF]
0.659

For Hck (UniProt P08631), provide phosphorylation enrichment of LITILYIGFLG [KCNQ1_Y267_T265I] please.
1.08

Record lookup: for Hck (UniProt P08631), what phosphorylation enrichment belongs to SLDHPYEKPRK [INAVA_Y333] ?
0.39

// map FKGKNYKPLDL [RPL35_Y78_K77N_YF] to recorded phosphorylation enrichment (system: Hck (UniProt P08631))
0.38

Hi! What's the reported phosphorylation enrichment for TNRSFYFKPSL [NUP153_Y382_V381F] on Hck (UniProt P08631)?
0.533

Item RSFSPYDFQPC [TNS1_Y796_YF] with Hck (UniProt P08631) - phosphorylation enrichment?
0.959

Look up phosphorylation enrichment with Hck (UniProt P08631) for this sequence: VRTGIYHGREP [PIK3CA_Y361_G364R]
0.638

I'm curious: which phosphorylation enrichment was measured for VDFQPYRKHKF [TEX37_Y28_YF] tested on Hck (UniProt P08631)?
0.451

Give phosphorylation enrichment (Hck (UniProt P08631)) of the following sequence: WKKKIYEESST [MOCS2_Y170_E168K]
0.511

====

# Test system: AncSZ
# assay_summary: phosphorylation enrichment, bacterial display (enrichment ratio); higher = better substrate or ligand; peptides without Tyr show the background
observable: phosphorylation enrichment
Form field (numeric): enter value without unit.

These recorded examples may help you get a feel for the data.
| primary_sequence | phosphorylation enrichment |
| --- | --- |
| ENELTYYCYKK [CD59_Y86_C89Y] | 1.92 |
| NCFKFYMSDDI [ATRX_Y204_YF] | 1.2 |
| GCRSKYVRLWG [KCNQ1_Y184_G186R] | 0.628 |

For FDSPFYRDSLP [TSC1_Y508] , what is its reported phosphorylation enrichment?
0.703

For the sequence TDTAAYEERLR [SPTB_Y474_V478L] , what phosphorylation enrichment is on record?
0.936

Item WDLSEYSFKDP [ITGA3_Y237_YF] has what recorded phosphorylation enrichment?
2.14

If you can, please state the reported phosphorylation enrichment value of GGPTYYIDTNA [ACTL6A_Y69] .
0.885

Could you tell me which phosphorylation enrichment is on file for FKNGDYNEVMK [LCT_Y1638] ?
0.882

If you can, please state the reported phosphorylation enrichment value of GITTGYLVLKE [DNMT3B_Y588_A585T] .
0.668

Please look up its phosphorylation enrichment: VKPENDRRLDI [VHL_Y175_Y175D]
0.675

Consider the sequence KPLMPCMRYSR [SMARCE1_Y73_Y73C] and give its measured phosphorylation enrichment.
0.821

What phosphorylation enrichment value was documented for this sequence, SGTFQYIIAKF [FOXL2_Y83_I80T_YF] ?
1.09

====

# Tested on: c-Abl (mouse)
# assay_summary: phosphorylation enrichment, bacterial display (enrichment ratio); higher = better substrate or ligand; peptides without Tyr show the background
Mark 1 (yes) for reported phosphorylation enrichment of 0.7 or greater; mark 0 (no) for anything smaller.

| primary_sequence | tested_system | class_label |
| --- | --- | --- |
| CFTRQYTLPPG [HSPB1_Y142_K141Q] | c-Abl (mouse) | 1 (yes) |
| HKLSYCEYDFE [BTK_Y40_Y40C] | c-Abl (mouse) | 1 (yes) |
| SGTFQYIIAKF [FOXL2_Y83_I80T_YF] | c-Abl (mouse) | 1 (yes) |
| HGTKVYIDPFT [EPHB4_Y590] | c-Abl (mouse) | 1 (yes) |
| WNDLDYVDSRR [GAA_Y407_M408V] | c-Abl (mouse) | 0 (no) |
| PVKAAYQKVVA [HBB_Y131_Q128K] | c-Abl (mouse) | 1 (yes) |
| MALDIYRASYY [ALK_Y1278_R1275L] | c-Abl (mouse) | 1 (yes) |
| FENGEYIIRQG [PRKG1_Y247_YF] | c-Abl (mouse) | 0 (no) |

Record PVGDVYKKKGL [NMNAT1_Y55_A54V] ; criterion: phosphorylation enrichment no lower than 0.7. Met?
0 (no)

Hi team, for MWGSDYVHLSR [MAP3K4_Y582_Q584H] , is the recorded phosphorylation enrichment at or above 0.7?
1 (yes)

Reported phosphorylation enrichment at or above 0.7? AHARMYGVLPW [PLP1_Y207_D203H]
0 (no)

Has WDSSGYWTPEE [PAPPA2_Y908_C903W] a recorded phosphorylation enrichment greater than or equal to 0.7?
0 (no)

Could you tell me if the measured phosphorylation enrichment of SPPEVYAIMRG [NTRK1_Y757_C752S] reaches 0.7 or more?
0 (no)

phosphorylation enrichment >= 0.7 for KLIETYSSKNF [PLP1_Y50_F51S_YF] ?
0 (no)

Has SLESAYPEVSQ [TTF1_Y357_G360V] a recorded phosphorylation enrichment greater than or equal to 0.7?
1 (yes)

Please indicate if the recorded phosphorylation enrichment for LDTSQYFRLFN [CPT2_Y217_M214T] meets or exceeds 0.7.
0 (no)

Textbook exercise: given the entry ATPSRYMTFLH [DYNC2H1_Y2872] , state whether its phosphorylation enrichment is greater than or equal to 0.7.
0 (no)

Determine whether measured phosphorylation enrichment meets or exceeds 0.7 for RNFDTYTAGLS [RHBDD1_Y264_YF]
0 (no)

Please indicate if the recorded phosphorylation enrichment for IQRSLYDCPAS [PDGFRA_Y762_R764C] meets or exceeds 0.7.
1 (yes)

// inclusive: phosphorylation enrichment at least 0.7? input: EWLRRYLKNGK [HLA-C_Y195_E197K]
0 (no)
